Reported pIC50 values for the following molecules.
TARGET OR SYSTEM: Secreted effector protein (Yersinia pestis)
Sequence (O68720 whole entry): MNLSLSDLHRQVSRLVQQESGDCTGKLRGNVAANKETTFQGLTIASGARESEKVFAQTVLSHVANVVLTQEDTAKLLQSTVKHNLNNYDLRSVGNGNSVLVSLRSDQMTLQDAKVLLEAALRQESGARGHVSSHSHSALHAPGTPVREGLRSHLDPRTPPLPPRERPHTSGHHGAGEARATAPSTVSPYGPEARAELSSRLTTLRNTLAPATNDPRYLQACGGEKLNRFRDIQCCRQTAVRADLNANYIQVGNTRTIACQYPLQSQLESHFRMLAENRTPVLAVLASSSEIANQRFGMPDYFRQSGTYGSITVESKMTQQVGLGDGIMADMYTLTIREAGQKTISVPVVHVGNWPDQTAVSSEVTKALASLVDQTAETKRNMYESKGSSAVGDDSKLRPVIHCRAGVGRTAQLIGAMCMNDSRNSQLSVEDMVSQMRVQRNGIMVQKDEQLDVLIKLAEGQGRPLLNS
ASSAY METHOD TEXT: Inhibition of Yersinia pestis YOpH
pIC50: −log10 of the molar value.
REPORTED ENDPOINT: pIC50

{"COMPOUND STRUCTURE": "CCc1ccc(Oc2ccc(NC(=O)c3cc(COc4ccc(C(=O)C(=O)O)cc4)ccc3COc3ccc(C(=O)C(=O)O)cc3)cc2)cc1", "TARGET OR SYSTEM": "Secreted effector protein (Yersinia pestis)", "OBSERVED VALUE": 7.15}
{"COMPOUND STRUCTURE": "CCCCc1ccc(Oc2ccc(NC(=O)c3cc(COc4ccc(C(=O)C(=O)O)cc4)ccc3COc3ccc(C(=O)C(=O)O)cc3)cc2)cc1", "TARGET OR SYSTEM": "Secreted effector protein (Yersinia pestis)", "OBSERVED VALUE": 6.70}
{"COMPOUND STRUCTURE": "CSc1ccc(Oc2ccc(NC(=O)c3cc(COc4ccc(C(=O)C(=O)O)cc4)ccc3COc3ccc(C(=O)C(=O)O)cc3)cc2)cc1", "TARGET OR SYSTEM": "Secreted effector protein (Yersinia pestis)", "OBSERVED VALUE": 6.96}
{"COMPOUND STRUCTURE": "N#Cc1ccc(Oc2ccc(NC(=O)c3cc(COc4ccc(C(=O)C(=O)O)cc4)ccc3COc3ccc(C(=O)C(=O)O)cc3)cc2)cc1", "TARGET OR SYSTEM": "Secreted effector protein (Yersinia pestis)", "OBSERVED VALUE": 5.89}

The reported numbers originate from ChEMBL document CHEMBL1240524.
